Every entry's value here was drawn from ChEMBL document CHEMBL5338720.

Assay: Ratio of drug concentration in mouse brain to plasma at 10 mg/kg, ip measured after 4 hrs
Assay type: ADME, organism-based
Conditions: read-out: BPR
Assay metric: Kp at 4 h
Write the value as a bare number.

Item under review: CCCN1CCN(c2ccc3c(c2)C(N(C)C(=O)OCc2ccccc2)CCC3)CC1 (stereo unspecified) . Reported Kp at 4 h?
2.8

---

Molecular target: Sigma intracellular receptor 2 (Homo sapiens, UniProt Q5BJF2)
Sequence (Q5BJF2 whole entry): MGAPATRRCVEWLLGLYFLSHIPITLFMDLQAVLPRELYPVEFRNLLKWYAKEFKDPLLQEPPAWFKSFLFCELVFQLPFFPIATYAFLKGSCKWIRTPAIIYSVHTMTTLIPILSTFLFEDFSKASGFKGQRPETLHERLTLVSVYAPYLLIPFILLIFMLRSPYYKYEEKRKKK
Assay: Binding affinity to sigma 2 receptor/TMEM97 (unknown origin) assessed as inhibition constant
Assay metric: Ki
I'd appreciate it if you wrote the number followed by its unit.

Query for Sigma intracellular receptor 2 (Homo sapiens, UniProt Q5BJF2): what Ki does the record show for Clc1ccc2c(c1)C1CC2CCCN1CCc1ccccc1 (stereo unspecified) ?
23 nM

---

Molecular target: Mu-type opioid receptor (Homo sapiens)
Sequence (P35372 whole entry): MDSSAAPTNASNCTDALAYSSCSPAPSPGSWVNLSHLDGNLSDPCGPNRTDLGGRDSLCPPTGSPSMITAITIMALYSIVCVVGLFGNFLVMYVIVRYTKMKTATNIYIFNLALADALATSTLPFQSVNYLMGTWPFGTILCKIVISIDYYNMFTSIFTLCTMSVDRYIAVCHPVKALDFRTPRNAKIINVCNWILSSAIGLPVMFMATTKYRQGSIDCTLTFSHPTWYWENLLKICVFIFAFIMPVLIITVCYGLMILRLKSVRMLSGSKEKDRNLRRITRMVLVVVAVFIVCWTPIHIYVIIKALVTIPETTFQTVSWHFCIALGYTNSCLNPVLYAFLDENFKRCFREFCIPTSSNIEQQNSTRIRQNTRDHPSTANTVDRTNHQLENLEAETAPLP
pKi: −log10 of the molar value.
Assay metric: pKi

Query for Mu-type opioid receptor (Homo sapiens): what pKi does the record show for CCCN1CCN(c2ccc3c(c2)C(N(C)C(=O)OCc2ccccc2)CCC3)CC1 (stereo unspecified) ?
< 5.00

---

Assay: Drug concentration in mouse brain at 10 mg/kg, ip measured after 4 hrs
Type: ADME, organism-based
Conditions: read-out: Ct
Assay metric: concentration at 4 h (nM)
Give a bare numeral; the unit nM is implied.

Item under review: CCCN1CCN(c2ccc3c(c2)C(N(C)C(=O)OCc2ccccc2)CCC3)CC1 (stereo unspecified) . Reported concentration at 4 h?
104

---

Molecular target: Sigma non-opioid intracellular receptor 1 (Cavia porcellus, UniProt Q60492)
Sequence (Q60492 whole entry): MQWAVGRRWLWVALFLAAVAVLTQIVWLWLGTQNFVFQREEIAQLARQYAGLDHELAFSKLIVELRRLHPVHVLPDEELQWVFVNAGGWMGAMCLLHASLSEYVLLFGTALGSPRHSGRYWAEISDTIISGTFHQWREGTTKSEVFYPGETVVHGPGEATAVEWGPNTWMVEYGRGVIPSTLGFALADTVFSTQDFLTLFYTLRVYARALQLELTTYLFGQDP
Test: Displacement of [3H](+)-pentazocine from sigma 1 receptor in guinea pig brain assessed as inhibition constant by competition binding assay
Ki strictly under 200 nM means Condition met; at 200 nM or over means Condition not met.

- Compound: "CCCN1CCN(c2ccc3c(c2)C(N(CCCO)C(=O)OCc2ccccc2)CCC3)CC1 (stereo not drawn)"
  Class assignment: "Condition not met"

Lab log: compare recorded Ki with 200 nM; is it strictly lower for CCCN1CCN(c2ccc3c(c2)C(OC/C=C/c2ccccc2)CCC3)CC1 (stereo not drawn) ?
Condition met

Lab log: compare recorded Ki with 200 nM; is it strictly lower for CCOC(=O)CN1CCN(c2ccc3c(c2)C(N(C)C(=O)OCc2ccccc2)CCC3)CC1 (stereo not drawn) ?
Condition not met

Lab log: compare recorded Ki with 200 nM; is it strictly lower for CCCN1CCN(c2ccc3c(c2)CCCC3N(C)C(=O)OCc2ccccc2)CC1 (stereo not drawn) ?
Condition met

Lab log: compare recorded Ki with 200 nM; is it strictly lower for CCN1CCN(c2ccc3c(c2)C(N(C)C(=O)OCc2ccccc2)CCC3)CC1 (stereo not drawn) ?
Condition not met

Lab log: compare recorded Ki with 200 nM; is it strictly lower for CN(C(=O)OCc1ccccc1)C1CCCc2ccc(N3CCN(C4CCC4)CC3)cc21 (stereo not drawn) ?
Condition not met

Lab log: compare recorded Ki with 200 nM; is it strictly lower for CCCN1CCN(c2ccc3c(c2)C(N(C)C(=O)CCc2ccccc2)CCC3)CC1 (stereo not drawn) ?
Condition not met

Lab log: compare recorded Ki with 200 nM; is it strictly lower for CCCN1CCN(c2ccc3c(c2)C(OC(=O)CCc2ccccc2)CCC3)CC1 (stereo not drawn) ?
Condition met

Lab log: compare recorded Ki with 200 nM; is it strictly lower for CCCN1CCN(c2cccc3c2CCCC3N(C)C(=O)OCc2ccccc2)CC1 (stereo not drawn) ?
Condition met

Lab log: compare recorded Ki with 200 nM; is it strictly lower for CCN(CC)C(=O)CCN1CCN(c2ccc3c(c2)C(N(C)C(=O)OCc2ccccc2)CCC3)CC1 (stereo not drawn) ?
Condition not met

Lab log: compare recorded Ki with 200 nM; is it strictly lower for CN(C(=O)OCc1ccccc1)C1CCCc2ccc(N3CCN(C4CCCCC4)CC3)cc21 (stereo not drawn) ?
Condition met

Lab log: compare recorded Ki with 200 nM; is it strictly lower for CCOC(=O)CCN1CCN(c2ccc3c(c2)C(N(C)C(=O)OCc2ccccc2)CCC3)CC1 (stereo not drawn) ?
Condition not met

Lab log: compare recorded Ki with 200 nM; is it strictly lower for CCCN1CCN(c2ccc3c(c2)C(N(CCC(=O)OCC)C(=O)OCc2ccccc2)CCC3)CC1 (stereo not drawn) ?
Condition met

Lab log: compare recorded Ki with 200 nM; is it strictly lower for CCCN1CCN(c2ccc3c(c2)C(OCCCc2ccccc2)CCC3)CC1 (stereo not drawn) ?
Condition met

Lab log: compare recorded Ki with 200 nM; is it strictly lower for COCCN1CCN(c2ccc3c(c2)C(N(C)C(=O)OCc2ccccc2)CCC3)CC1 (stereo not drawn) ?
Condition not met

Lab log: compare recorded Ki with 200 nM; is it strictly lower for CN1CCN(c2ccc3c(c2)C(N(C)C(=O)OCc2ccccc2)CCC3)CC1 (stereo not drawn) ?
Condition not met

Lab log: compare recorded Ki with 200 nM; is it strictly lower for CCCN1CCN(c2ccc3c(c2)C(N(CC)C(=O)OCc2ccccc2)CCC3)CC1 (stereo not drawn) ?
Condition not met

Lab log: compare recorded Ki with 200 nM; is it strictly lower for CN(C(=O)OCc1ccccc1)C1CCCc2ccc(N3CCN(C4CCCC4)CC3)cc21 (stereo not drawn) ?
Condition met

---

Molecular target: Serotonin 3 (5-HT3) receptor
Assay: Binding affinity to human 5HT3 receptor assessed as inhibition constant
Assay metric: Ki

Item under review: CCCN1CCN(c2ccc3c(c2)C(N(C)C(=O)OCc2ccccc2)CCC3)CC1 (stereo unspecified) . Reported Ki?
> 10 µM

---

Molecular target: Muscarinic acetylcholine receptor M4 (Homo sapiens, UniProt P08173)
Sequence (P08173 whole entry): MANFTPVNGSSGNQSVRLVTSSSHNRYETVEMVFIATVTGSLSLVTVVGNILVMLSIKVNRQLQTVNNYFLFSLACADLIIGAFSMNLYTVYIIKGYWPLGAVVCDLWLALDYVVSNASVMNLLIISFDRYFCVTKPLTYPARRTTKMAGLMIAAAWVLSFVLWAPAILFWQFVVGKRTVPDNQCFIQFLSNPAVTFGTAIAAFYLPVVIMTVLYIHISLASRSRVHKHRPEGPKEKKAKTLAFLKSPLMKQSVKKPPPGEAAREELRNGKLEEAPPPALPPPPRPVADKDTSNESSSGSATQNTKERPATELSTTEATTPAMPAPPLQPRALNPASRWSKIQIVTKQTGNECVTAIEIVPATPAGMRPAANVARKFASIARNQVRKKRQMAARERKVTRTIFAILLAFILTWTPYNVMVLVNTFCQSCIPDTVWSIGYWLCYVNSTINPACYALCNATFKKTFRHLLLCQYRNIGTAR
Assay metric: Ki

Item under review: CCCN1CCN(c2ccc3c(c2)C(N(C)C(=O)OCc2ccccc2)CCC3)CC1 (stereo unspecified) . Reported Ki?
> 10 µM

---

Biological target: Sigma non-opioid intracellular receptor 1 (Homo sapiens, UniProt Q99720)
Sequence (Q99720 whole entry): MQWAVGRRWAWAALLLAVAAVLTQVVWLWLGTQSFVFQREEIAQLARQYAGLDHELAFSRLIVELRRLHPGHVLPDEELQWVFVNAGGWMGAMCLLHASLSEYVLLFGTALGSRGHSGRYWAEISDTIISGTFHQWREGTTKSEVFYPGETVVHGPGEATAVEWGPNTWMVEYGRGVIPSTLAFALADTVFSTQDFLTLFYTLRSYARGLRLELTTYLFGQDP
Assay: Displacement of [3H](+)-pentazocine from human sigma 1 receptor transfected in HEK293 cells assessed as inhibition constant by competition binding assay
Assay type: cell-based
pKi by entry:
Just so you know, pKi here is -log10 of the concentration in molar units; reply with that number alone.

Item under review: CCCN1CCN(c2ccc3c(c2)C(N(C)C(=O)/C=C/c2ccccc2)CCC3)CC1 (stereo not drawn) . Reported pKi?
6.71

Item under review: CCCN1CCN(c2ccc3c(c2)C(N(C)C(=O)OCc2ccccc2)CCC3)CC1 (stereo not drawn) . Reported pKi?
7.09

Item under review: CCCN1CCN(c2ccc3c(c2)C(N(C)C(=O)Cc2ccccc2)CCC3)CC1 (stereo not drawn) . Reported pKi?
6.73

---

Molecular target: Sigma intracellular receptor 2 (Rattus norvegicus, UniProt Q5U3Y7)
Sequence (Q5U3Y7 whole entry): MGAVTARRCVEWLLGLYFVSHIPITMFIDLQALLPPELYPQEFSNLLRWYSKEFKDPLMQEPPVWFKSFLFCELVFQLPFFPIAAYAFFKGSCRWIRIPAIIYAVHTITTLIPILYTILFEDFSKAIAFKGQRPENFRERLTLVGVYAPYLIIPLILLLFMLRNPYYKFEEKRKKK
Assay: Displacement of [3H]-ditolylguanidine from sigma 2 receptor/TMEM97 in rat PC-12 cells assessed as inhibition constant in the presence of (+)-pentazocine by competition binding assay
Ki by entry:
Give a bare numeral; the unit µM is implied.

Illustrative cases are given below, each with its answer.
- Molecule: "CCOC(=O)CN1CCN(c2ccc3c(c2)C(N(C)C(=O)OCc2ccccc2)CCC3)CC1 (stereo not given)"
  Numeric readout: 0.894
- Molecule: "CCCN1CCN(c2ccc3c(c2)C(N(C)C(=O)OCc2ccccc2)CCC3)CC1 (stereo not given)"
  Numeric readout: 0.0055
- Molecule: "CN(C(=O)OCc1ccccc1)C1CCCc2ccc(N3CCN(CCCO)CC3)cc21 (stereo not given)"
  Numeric readout: 0.021
- Molecule: "CN(C(=O)OCc1ccccc1)C1CCCc2ccc(N3CCN(C4CCCC4)CC3)cc21 (stereo not given)"
  Numeric readout: 0.0021
- Molecule: "CN1CCN(c2ccc3c(c2)C(N(C)C(=O)OCc2ccccc2)CCC3)CC1 (stereo not given)"
  Numeric readout: 0.284

Query for Sigma intracellular receptor 2 (Rattus norvegicus, UniProt Q5U3Y7): what Ki does the record show for CCCN1CCN(c2ccc3c(c2)C(OC(=O)CCc2ccccc2)CCC3)CC1 (stereo not given) ?
0.025

Query for Sigma intracellular receptor 2 (Rattus norvegicus, UniProt Q5U3Y7): what Ki does the record show for CN(C(=O)OCc1ccccc1)C1CCCc2ccc(N3CCN(C4CCCCC4)CC3)cc21 (stereo not given) ?
0.0021

Query for Sigma intracellular receptor 2 (Rattus norvegicus, UniProt Q5U3Y7): what Ki does the record show for CCN1CCN(c2ccc3c(c2)C(N(C)C(=O)OCc2ccccc2)CCC3)CC1 (stereo not given) ?
0.035

Query for Sigma intracellular receptor 2 (Rattus norvegicus, UniProt Q5U3Y7): what Ki does the record show for CC(C)N1CCN(c2ccc3c(c2)C(N(C)C(=O)OCc2ccccc2)CCC3)CC1 (stereo not given) ?
0.0083

Query for Sigma intracellular receptor 2 (Rattus norvegicus, UniProt Q5U3Y7): what Ki does the record show for CCCN1CCN(c2ccc3c(c2)CCCC3N(C)C(=O)OCc2ccccc2)CC1 (stereo not given) ?
0.013
